# Tested on: Staphylococcus epidermidis
# TEST DESCRIPTION: Antibacterial activity against methicillin-resistant coagulase-negative Staphylococcus epidermidis 345 by broth macrodilution method
# Format: functional
API: label(entry) gives 1 if the entry's MIC is strictly smaller than 0.1 µg/mL; on equality or larger values it gives -1.

* COc1ncc(C2c3ccccc3C=NN2C(=O)/C=C/c2cc(Cc3cnc(N)nc3N)cc(OC)c2OC)cn1 (stereo not drawn) | 1
* CC(=O)NC[C@H]1CN(c2ccc(N3CCOCC3)c(F)c2)C(=O)O1 | -1
* CCC[C@@H]1C[C@@H](C(=O)N[C@@H]([C@H]2O[C@H](SC)[C@H](O)[C@@H](O)[C@H]2O)[C@H](C)Cl)N(C)C1 | -1
* COc1cc(Cc2cnc(N)nc2N)cc(OC)c1OC | -1
* CO[C@H]1/C=C/O[C@@]2(C)Oc3c(C)c(O)c4c(O)c(c(/C=N/N5CCN(C)CC5)c(O)c4c3C2=O)NC(=O)/C(C)=C\C=C\[C@H](C)[C@H](O)[C@@H](C)[C@@H](O)[C@@H](C)[C@H](OC(C)=O)[C@@H]1C | 1
* COc1cc(Cc2cnc(N)nc2N)cc(/C=C/C(=O)N2N=Cc3ccccc3C2c2cnc(N(C)C)nc2)c1OC (stereo not drawn) | 1
* CN(C)c1ccc(O)c2c1C[C@H]1C[C@H]3[C@H](N(C)C)C(O)=C(C(N)=O)C(=O)[C@@]3(O)C(O)=C1C2=O | -1
* COc1cc(Cc2cnc(N)nc2N)cc(/C=C/C(=O)N2N=Cc3ccccc3C2c2cnc(N3CCOCC3)nc2)c1OC (stereo not drawn) | -1

----------
# Test system: Staphylococcus aureus
# TEST DESCRIPTION: Antibacterial activity against Tmp-susceptible Staphylococcus aureus by agar dilution method
# Format: functional
READOUT: log10 of MIC50 (log10 of the value in µg/mL)

• CN[C@H](CC(C)C)C(=O)N[C@H]1C(=O)N[C@@H](CC(N)=O)C(=O)N[C@H]2C(=O)N[C@H]3C(=O)N[C@H](C(=O)N[C@H](C(=O)O)c4cc(O)cc(O)c4-c4cc3ccc4O)[C@H](O)c3ccc(c(Cl)c3)Oc3cc2cc(c3O[C@@H]2O[C@H](CO)[C@@H](O)[C@H](O)[C@H]2O[C@H]2C[C@](C)(N)[C@H](O)[C@H](C)O2)Oc2ccc(cc2Cl)[C@H]1O = 0.00
• COc1cc(Cc2cnc(N)nc2N)cc(/C=C/C(=O)N2N=Cc3ccccc3C2c2cnc(N(C)C)nc2)c1OC (centres undefined) = -1.52
• CO[C@H]1/C=C/O[C@@]2(C)Oc3c(C)c(O)c4c(O)c(c(/C=N/N5CCN(C)CC5)c(O)c4c3C2=O)NC(=O)/C(C)=C\C=C\[C@H](C)[C@H](O)[C@@H](C)[C@@H](O)[C@@H](C)[C@H](OC(C)=O)[C@@H]1C = -1.80
• CC(=O)NC[C@H]1CN(c2ccc(N3CCOCC3)c(F)c2)C(=O)O1 = 0.30
• CN(C)c1ccc(O)c2c1C[C@H]1C[C@H]3[C@H](N(C)C)C(O)=C(C(N)=O)C(=O)[C@@]3(O)C(O)=C1C2=O = -0.90
• COc1ncc(C2c3ccccc3C=NN2C(=O)/C=C/c2cc(Cc3cnc(N)nc3N)cc(OC)c2OC)cn1 (centres undefined) = -1.52
• COc1cc(Cc2cnc(N)nc2N)cc(/C=C/C(=O)N2N=Cc3ccccc3C2c2cnc(N3CCOCC3)nc2)c1OC (centres undefined) = -1.52
• COc1cc(Cc2cnc(N)nc2N)cc(OC)c1OC = -0.30
